Entries and their Kd
# testedSystem: T1, KLHL3 Kelch domain (a.a. 298–587) (human, UniProt Q9UH77-1 298-587)
# T1 chain: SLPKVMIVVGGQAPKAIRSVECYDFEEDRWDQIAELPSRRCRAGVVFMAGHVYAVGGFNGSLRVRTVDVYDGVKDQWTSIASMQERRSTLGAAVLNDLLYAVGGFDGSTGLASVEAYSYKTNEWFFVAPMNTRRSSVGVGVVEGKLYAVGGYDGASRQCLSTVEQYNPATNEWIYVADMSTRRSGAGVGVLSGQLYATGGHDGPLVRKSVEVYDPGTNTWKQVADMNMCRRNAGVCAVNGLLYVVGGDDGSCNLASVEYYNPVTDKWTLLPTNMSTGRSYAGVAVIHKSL
# measurementDescription: FP; 18 mM Cl-
Ends that are not written are not given here. Rhodamine‑110 = fluorophore on the N-terminus
Give the quantity in nM, number only.

[[record]]
binder = "{Rhodamine‑110}-ECEETEVDQHV [Rhodamine-110 labelled WNK3 degron peptide (ECEETEVDQHV)]"
measurementunit = "nM"
valuereported = 1400


Field: next binder
Q: Item {Rhodamine‑110}-EPEEPEADQHQ (WNK4 acidic degron motif, residues 557–567; also called 11-residue degron from WNK4; source: synthetic peptide (Fmoc solid phase, purified by HPLC)) [Rhodamine-110 labelled WNK4 degron peptide (EPEEPEADQHQ)] has what recorded Kd?
A: 600
